Biological target: T1, TNFR2-His (Sino Biological, 10417-H08H, NP_001057.1 Met1-Asp257, with multi-histidine tag expressed on … (human, UniProt P20333 23-257))
T1 construct: range 1-257; Bought protein; also called recombinant human TNFR2 protein; TNFR2-His antigen; not shown: C-terminal multi-histidine tag
T1 sequence (looked up): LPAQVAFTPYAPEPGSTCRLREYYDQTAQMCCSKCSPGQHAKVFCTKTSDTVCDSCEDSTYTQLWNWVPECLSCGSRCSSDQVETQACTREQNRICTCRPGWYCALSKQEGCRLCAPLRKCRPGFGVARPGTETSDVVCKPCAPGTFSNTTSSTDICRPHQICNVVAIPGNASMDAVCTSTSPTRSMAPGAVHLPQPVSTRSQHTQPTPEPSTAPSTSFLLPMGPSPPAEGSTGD
Test: BLI, antibody captured on AHC probe, TNFR2-His in solution
Quantity: pKd
A value of pKd is the negative decimal logarithm of a concentration given in moles per litre.

# Binder, Quantity, Reported Value
rows = [
    ("33C12huVH3 + huVL3(P07304) (antibody, V domains shown, Humanized 33C12) VH: EVQLVESGGGLVKPGGSLRLSCAASGFTFSDYTMSWVRQAPGKGLEWVATISTGGSYTYYADSVKGRFTISRDNAKNSLYLQMNSLRAEDTAVYYCARDGGYDGDYFDYWGQGTTVTVSS VL: EIVLTQSPATLSLSPGERATLSCRASSSVSSSYLHWYQQKPGQAPRLLIYRTSNLATGIPDRFSGSGSGTDFTLTISRLEPEDFAVYYCQQYSGYPLTFGGGTKLEIK", "pKd", 7.31),
]

Q. Endpoint output: pKd of 33C12huVH3 + huVL1(P07300) (antibody, V domains shown, Humanized 33C12) VH: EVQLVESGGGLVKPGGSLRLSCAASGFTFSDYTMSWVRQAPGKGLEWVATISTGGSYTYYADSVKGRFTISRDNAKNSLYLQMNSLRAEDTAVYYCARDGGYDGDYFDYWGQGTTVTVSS VL: ENVLTQSPATLSLSPGERATMSCRASSSVSSSYLHWYQQKPGQAPRLWIYRTSNLASGVPARFSGSGSGTDYTLTISRVEPEDFAVYYCQQYSGYPLTFGGGTKLEIK . Value?
A. 7.90

Q. Check 33C12huVH2 + huVL2(P07301) (antibody, V domains shown, Humanized 33C12) VH: EVQLVESGGGLVKPGGSLRLSCAASGFTFSDYTMSWVRQAPGKGLEWVATISTGGSYTYYPDSVKGRFTISRDNAKNTLYLQMSSLRAEDTAVYYCARDGGYDGDYFDYWGQGTTVTVSS VL: ENVLTQSPATLSLSPGERATLSCRASSSVSSSYLHWYQQKPGQAPRLWIYRTSNLASGVPARFSGSGSGTDFTLTISRLEPEDFAVYYCQQYSGYPLTFGGGTKLEIK too.
A. 7.75

Q. Check 33C12huVH1 + huVL1(P07298) (antibody, V domains shown, Humanized 33C12) VH: DVQLVESGGGLVKPGGSLRLSCAASGFTFSDYTMSWVRQAPGKGLEWVATISTGGSYTYYPDSVKGRFTISRDNAKNTLYLQMSSLRAEDTAVYYCTRDGGYDGDYFDYWGQGTTVTVSS VL: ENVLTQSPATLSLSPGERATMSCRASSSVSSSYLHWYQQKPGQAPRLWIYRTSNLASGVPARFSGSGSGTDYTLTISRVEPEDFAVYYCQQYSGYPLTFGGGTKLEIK too.
A. 7.75

Q. Check 33C12huVH3 + huVL2(P07302) (antibody, V domains shown, Humanized 33C12) VH: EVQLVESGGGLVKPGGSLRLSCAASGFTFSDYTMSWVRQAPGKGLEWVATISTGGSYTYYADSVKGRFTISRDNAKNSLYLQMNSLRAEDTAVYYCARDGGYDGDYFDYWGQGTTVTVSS VL: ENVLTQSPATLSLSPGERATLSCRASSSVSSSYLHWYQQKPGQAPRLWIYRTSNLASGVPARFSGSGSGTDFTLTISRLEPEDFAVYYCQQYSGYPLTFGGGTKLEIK too.
A. 7.92

These data points were gathered from patent US20240392024A1.
